Target: T1, PUF4 RNA-binding domain (Saccharomyces cerevisiae, UniProt P25339 537-888)
T1 sequence: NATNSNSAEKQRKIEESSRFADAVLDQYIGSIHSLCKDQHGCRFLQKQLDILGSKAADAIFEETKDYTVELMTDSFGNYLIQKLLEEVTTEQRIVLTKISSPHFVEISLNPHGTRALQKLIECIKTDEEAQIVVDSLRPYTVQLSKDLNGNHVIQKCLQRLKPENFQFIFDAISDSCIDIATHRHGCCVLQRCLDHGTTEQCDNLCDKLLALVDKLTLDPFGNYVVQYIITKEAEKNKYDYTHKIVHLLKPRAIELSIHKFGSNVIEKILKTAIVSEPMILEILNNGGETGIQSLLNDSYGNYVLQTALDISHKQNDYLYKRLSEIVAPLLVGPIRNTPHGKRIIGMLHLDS
Assay: Mg; RNA-MaP; 20 mM Na-HEPES pH 7.4, 30 mM KOAc, 0.75 mM MgCl2, 0.1% Tween-20, 5% glycerol, 0.1 mg/mL BSA, 2 mM DTT; 25 C; 0.0125-409.6 nM protein
Conditions: tags: N-His6-TEV cleaved; C-SNAP kept, Cy3B-labelled; label: tethered on chip by stalled RNA polymerase
observation-type: pKd
Conceptually, pKd converts a concentration in mol/L into minus its log10.

Lookup result for Ie_S2_P5E.1_K5.1_C5.1_H5.1_[+2TCTCT]_A5.1_F5.1_T5.1 (ssRNA) RNA: UUUGAUUAAUAUGAUAUCGUUCUUUCUUGUCUCUUAUUAUUAUUCUUUCUCGAUAUCAUAUUAAUCUUU ; measured pKd: 7.41

Lookup result for Ib_S2_P4E.1_K4.1_C4.1_H4.1_[T1C]_A4.1_[A6G]_F4.1_T4.1 (ssRNA) RNA: UUUGAUUAAUAUGAUAUCGUUCUUUCUCGUAUGUUAUUCUUUCUCGAUAUCAUAUUAAUCUUU ; measured pKd: 6.10

Lookup result for UCUCUUAAUGUAUAUUAUUUCUCUU (ssRNA) [Id_ii_S1_P4E.2_K4.1_C4.2_[C-2A]_[T-1A]_H4.1_A4.1_F4.1_T4.2_[G10T]] ; measured pKd: 8.79

Lookup result for UCUCUUGUUGUAUAUACCUCUCUU (ssRNA) [Id_ii_S1_P3E.2_K3.1_C3.2_[C-2G]_H3.1_A3.1_F3.1_T3.2_[T9C]_[A10C]] ; measured pKd: 7.70

Lookup result for Ic_S4_P3E.1_K3.1_C3.1_H3.1_A3.1_[T5G]_[A6C]_F3.1_[T7C]_[A8C]_T3.1 (ssRNA) RNA: UUUGACAACUGAUCGUUCUUUCUUGUAGCCCUUCUUUCUCGAUCAGUUGUCUUU ; measured pKd: 6.19

Lookup result for UCUCUUUGUAUUAUUUCCAUCUCUU (ssRNA) [Ie_S1_P5E.1_K5.1_C5.1_H5.1_A5.1_F5.1_[+9TCC]_T5.1] ; measured pKd: 7.69

Lookup result for Ie_S4_P5E.1_K5.1_C5.1_H5.1_[+2CCTC]_A5.1_F5.1_T5.1 (ssRNA) RNA: UUUGACAACUGAUCGUUCUUUCUUGCCUCUAUUAUUAUUCUUUCUCGAUCAGUUGUCUUU ; measured pKd: 6.06

Lookup result for UCUCUUAAUAUAUAUAUAUCUCUU (ssRNA) [Id_i_S1_P3E.3_K3.2_C3.2_[C-2A]_[T-1A]_H3.2_A3.1_F3.1_T3.2] ; measured pKd: 6.17

Lookup result for UCUCUUUGUAUUAUUCUCUCUU (ssRNA) [Ia_S1_P5E.1_K5.1_C5.1_H5.1_A5.1_F5.1_[A10C]_T5.1] ; measured pKd: 7.78

Lookup result for Ic_S4_P5E.1_K5.1_C5.1_H5.1_A5.1_[T5A]_[T6A]_F5.1_[T8C]_[T9A]_[A10C]_T5.1 (ssRNA) RNA: UUUGACAACUGAUCGUUCUUUCUUGUAAAACACUUCUUUCUCGAUCAGUUGUCUUU ; measured pKd: 6.72

Lookup result for UCUCUUUGUACUUUAUCUCUU (ssRNA) [Ib_S1_P4E.1_K4.1_C4.1_H4.1_A4.1_[T5C]_[A6T]_F4.1_T4.1] ; measured pKd: 8.56

Lookup result for Ib_S2_P5E.1_K5.1_C5.1_H5.1_[A4G]_A5.1_[T5C]_F5.1_T5.1 (ssRNA) RNA: UUUGAUUAAUAUGAUAUCGUUCUUUCUUGUGCUAUUAUUCUUUCUCGAUAUCAUAUUAAUCUUU ; measured pKd: 8.03

Lookup result for UCUCUUUGUAGUGUUCUCUU (ssRNA) [Ic_S1_P3E.1_K3.1_C3.1_H3.1_A3.1_[T5G]_[A6T]_F3.1_[T7G]_[A8T]_T3.1] ; measured pKd: 6.18

Lookup result for UCUCUUUGUACCAAACUCUCUU (ssRNA) [Ic_S1_P5E.1_K5.1_C5.1_H5.1_A5.1_[T5C]_[T6C]_F5.1_[T8A]_[T9A]_[A10C]_T5.1] ; measured pKd: 7.17

Lookup result for UCUCUUCGUAUAUAUAAUUCUCUU (ssRNA) [Id_ii_S1_P3E.3_K3.2_C3.2_[T-1G]_H3.2_A3.1_F3.1_T3.2_[T9A]_[A10T]] ; measured pKd: 6.17

Lookup result for Ic_S2_P5E.1_K5.1_C5.1_H5.1_A5.1_F5.1_[T9C]_[A10T]_T5.1 (ssRNA) RNA: UUUGAUUAAUAUGAUAUCGUUCUUUCUUGUAUUAUCUUUCUUUCUCGAUAUCAUAUUAAUCUUU ; measured pKd: 7.75

Lookup result for Id_ii_S2_P3E.4_K3.3_C3.2_[C-2A]_H3.3_A3.1_F3.1_T3.2_[T9A] (ssRNA) RNA: UUUGAUUAAUAUGAUAUCGUUCUUUCUAUACACUAUAAAUUCUUUCUCGAUAUCAUAUUAAUCUUU ; measured pKd: 7.56

Lookup result for UCUCUUGGUGUAUAUAAUUCUCUU (ssRNA) [Id_ii_S1_P3E.2_K3.1_C3.2_[C-2G]_[T-1G]_H3.1_A3.1_F3.1_T3.2_[T9A]_[A10T]] ; measured pKd: 7.79

Lookup result for Ic_S2_P4E.1_K4.1_C4.1_H4.1_A4.1_[T5C]_[A6T]_[T7C]_F4.1_T4.1 (ssRNA) RNA: UUUGAUUAAUAUGAUAUCGUUCUUUCUUGUACUCUAUUCUUUCUCGAUAUCAUAUUAAUCUUU ; measured pKd: 9.01

Lookup result for Ic_S4_P3E.1_K3.1_C3.1_H3.1_A3.1_[T5G]_[A6C]_F3.1_[T7G]_[A8G]_T3.1 (ssRNA) RNA: UUUGACAACUGAUCGUUCUUUCUUGUAGCGGUUCUUUCUCGAUCAGUUGUCUUU ; measured pKd: 5.90

Lookup result for Ib_S2_P4E.1_K4.1_C4.1_H4.1_A4.1_[T5C]_[T7G]_F4.1_T4.1 (ssRNA) RNA: UUUGAUUAAUAUGAUAUCGUUCUUUCUUGUACAGUAUUCUUUCUCGAUAUCAUAUUAAUCUUU ; measured pKd: 9.05

Lookup result for UCUCUUUGUACCUUUAUUAUCUCUU (ssRNA) [Ie_S1_P5E.1_K5.1_C5.1_H5.1_[+4CCT]_A5.1_F5.1_T5.1] ; measured pKd: 8.17
